Field: glycan array binding signal (z-score). Provide a value for each of the binders that follow.
# systemTested: GlcNAc(b1-2)Gal(b1-3)GalNAc
# methodNotes: glycan array binding signal (z-score within array); higher = stronger binding
# conditionSummary: glycan notation: IUPAC condensed, linker removed
The entries come from a sample that favours the strongest signals as a whole.
Answers are plain numbers.

INSERT INTO measurements (binder, readout, measuredvalue) VALUES
  ('Langerin K299A/K313A (Homo sapiens), Q9UJ71 (protein) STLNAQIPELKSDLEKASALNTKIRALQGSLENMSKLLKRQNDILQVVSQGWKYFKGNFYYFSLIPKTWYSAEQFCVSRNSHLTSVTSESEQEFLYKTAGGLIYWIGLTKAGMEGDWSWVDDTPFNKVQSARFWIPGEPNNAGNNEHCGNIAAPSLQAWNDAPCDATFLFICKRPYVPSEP', 'glycan array binding signal (z-score)', 0.486),
  ('XCL (Xerocomus chrysenteron) (protein) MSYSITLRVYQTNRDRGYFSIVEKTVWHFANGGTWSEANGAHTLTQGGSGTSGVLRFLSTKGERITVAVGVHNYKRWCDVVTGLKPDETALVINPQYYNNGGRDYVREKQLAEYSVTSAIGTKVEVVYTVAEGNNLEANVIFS', 'glycan array binding signal (z-score)', -0.139),
  ('rCnSL-A (Clitocybe nebularis) (protein) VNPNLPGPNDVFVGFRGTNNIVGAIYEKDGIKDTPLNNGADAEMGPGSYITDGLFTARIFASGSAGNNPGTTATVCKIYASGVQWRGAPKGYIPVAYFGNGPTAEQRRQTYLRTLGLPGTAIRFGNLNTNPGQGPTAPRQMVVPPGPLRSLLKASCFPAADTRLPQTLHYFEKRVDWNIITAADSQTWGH', 'glycan array binding signal (z-score)', -0.27),
  ('SJA (Sophora japonica) (protein) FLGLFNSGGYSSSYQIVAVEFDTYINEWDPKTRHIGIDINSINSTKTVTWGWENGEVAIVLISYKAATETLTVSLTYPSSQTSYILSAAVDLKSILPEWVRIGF', 'glycan array binding signal (z-score)', -0.192),
  ('SUN4 (Saccharomyces cerevisiae), P53616 (protein) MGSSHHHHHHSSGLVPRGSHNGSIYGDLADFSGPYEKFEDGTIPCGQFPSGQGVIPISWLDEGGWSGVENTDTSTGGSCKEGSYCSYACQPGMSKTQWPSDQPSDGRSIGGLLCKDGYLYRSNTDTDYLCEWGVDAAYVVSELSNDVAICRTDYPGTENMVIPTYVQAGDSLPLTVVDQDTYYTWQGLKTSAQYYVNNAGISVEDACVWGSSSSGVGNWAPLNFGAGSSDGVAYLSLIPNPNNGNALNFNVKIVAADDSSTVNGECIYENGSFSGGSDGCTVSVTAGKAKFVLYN', 'glycan array binding signal (z-score)', 0.963);

Next, consider the following binder.
Prompt: Record request: glycan array binding signal (z-score) value, item EEA (Euonymus europaeus) (protein) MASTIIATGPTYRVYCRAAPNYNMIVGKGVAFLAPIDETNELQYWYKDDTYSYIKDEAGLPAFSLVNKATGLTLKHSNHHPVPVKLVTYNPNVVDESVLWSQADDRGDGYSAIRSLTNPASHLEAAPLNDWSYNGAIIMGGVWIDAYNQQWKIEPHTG
Completion: -0.138
